Values compiled from ChEMBL document CHEMBL3784919.

Test system: MCF7
Assay: Antiproliferative activity against human MCF7 cells assessed as cell survival at 10 uM after 48 hrs by SRB assay
Type: functional
Details: MCF7, 48 h, read-out: Survival
Range-based classes on measured viability at 10 µM: bottom (below 30%), middle (30% to below 80%), top (80% or more)

1) COC(=O)c1cc(NC2=NC(=O)/C(=C/c3ccc(OC)c(OC)c3)S2)ccc1O: bottom
2) COC(=O)c1cc(NC2=NC(=O)/C(=C/c3cc(OC)c(OC)c(OC)c3)S2)ccc1O: middle
3) COC(=O)c1cc(NC2=NC(=O)/C(=C/c3ccc(O)cc3)S2)ccc1O: top
4) COC(=O)c1cc(NC2=NC(=O)/C(=C/c3ccc4c(c3)OCO4)S2)ccc1O: bottom
5) COC(=O)c1cc(NC2=NC(=O)/C(=C/c3ccc(N(C)C)cc3)S2)ccc1O: bottom
6) COC(=O)c1cc(NC2=NC(=O)/C(=C/c3ccc(F)cc3)S2)ccc1O: top
7) COC(=O)c1cc(NC2=NC(=O)/C(=C/c3cccc(Br)c3)S2)ccc1O: middle
8) COC(=O)c1cc(NC2=NC(=O)/C(=C/c3ccc(Br)cc3)S2)ccc1O: bottom
9) COC(=O)c1cc(NC2=NC(=O)/C(=C/c3ccc(Cl)cc3)S2)ccc1O: bottom

Consider now this further compound.
Prompt line: Into which category would you place COC(=O)c1cc(NC2=NC(=O)/C(=C/c3ccccc3Cl)S2)ccc1O ?
Response line: top

---

Test system: HeLa
Assay: Antiproliferative activity against human HeLa cells assessed as cell viability after 48 hrs by SRB assay
Type: functional, cell-based
Quick reference: pIC50 of the listed items.
Note: pIC50 values are expressed as the negative base-10 logarithm of concentration in M.

Prompt line: Recorded pIC50 for COc1cccc2c1C(=O)c1c(O)c3c(c(O)c1C2=O)C[C@@](O)(C(=O)CO)C[C@@H]3O[C@H]1C[C@H](N)[C@H](O)[C@H](C)O1 , please?
Response line: 7.00

---

Test system: MCF7
Assay: Antiproliferative activity against human MCF7 cells assessed as cell viability after 48 hrs by SRB assay
Format: functional, cell-based
Details: MCF7, 48 h
Examples of molecules with documented IC50 follow.
Field: numeric (nM). Do not append units.

Example results:
1) COC(=O)c1cc(NC2=NC(=O)/C(=C/c3ccc(Br)cc3)S2)ccc1O: 70
2) COC(=O)c1cc(NC2=NC(=O)/C(=C/c3ccc(C)cc3)S2)ccc1O: 410
3) COC(=O)c1cc(NC2=NC(=O)/C(=C/c3ccccc3O)S2)ccc1O: 500

Moving on to another molecule below.
Prompt line: Dear colleague, I am looking for the recorded IC50 of the following molecule: COC(=O)c1cc(NC2=NC(=O)/C(=C/c3ccc(N(C)C)cc3)S2)ccc1O
Response line: 630

---

System: MCF7
Experiment: Antiproliferative activity against human MCF7 cells assessed as cell survival at 10 uM after 48 hrs by SRB assay
Assay type: functional
Details: MCF7, 48 h, read-out: Survival
Quick rule for you: viability at 10 µM under 30% gets T, anything else gets F.

1. COC(=O)c1cc(NC2=NC(=O)/C(=C/c3ccc(OC)cc3)S2)ccc1O: T
2. COC(=O)c1cc(NC2=NC(=O)/C(=C/c3ccccc3OC)S2)ccc1O: F
3. COC(=O)c1cc(NC2=NC(=O)/C(=C/c3ccc(C)cc3)S2)ccc1O: T

Prompt line: Is viability at 10 µM of COC(=O)c1cc(NC2=NC(=O)/C(=C/c3ccccc3)S2)ccc1O strictly below 30%?
Response line: F

Prompt line: # iterate: COc1cccc2c1C(=O)c1c(O)c3c(c(O)c1C2=O)C[C@@](O)(C(=O)CO)C[C@@H]3O[C@H]1C[C@H](N)[C@H](O)[C@H](C)O1 [DOXORUBICIN]
Response line: T

Prompt line: Try this molecule next: COC(=O)c1cc(NC2=NC(=O)/C(=C/c3ccc([N+](=O)[O-])cc3)S2)ccc1O
Response line: F

Prompt line: Here is the next molecule: COC(=O)c1cc(NC2=NC(=O)CS2)ccc1O
Response line: F

Prompt line: Next molecule up: COC(=O)c1cc(NC2=NC(=O)/C(=C/c3ccccc3O)S2)ccc1O
Response line: T

Prompt line: Continue with COC(=O)c1cc(NC2=NC(=O)/C(=C/c3cccc(Cl)c3)S2)ccc1O
Response line: F
